TGT: HLA-A*26:01
PROCEDURE TEXT: IEDB peptide-MHC binding, purified MHC/competitive/fluorescence; filed as Kd, often an IC50 or EC50 that approximates it; bounds were set here for any values at or beyond the usual limits of such assays
EXPERIMENTAL CONDITIONS: source organism: Choclo virus
pKd: −log10 of the molar value.
ENDPOINT NAME: pKd

get_value(item= GRFQEALKK , readout=pKd) returns ≤ 4.70

###

TGT: HLA-B*40:01
PROCEDURE TEXT: IEDB peptide-MHC binding, purified MHC/competitive/radioactivity; filed as Kd, often an IC50 or EC50 that approximates it; bounds were set here for any values at or beyond the usual limits of such assays
EXPERIMENTAL CONDITIONS: source organism: Hepatitis C virus (isolate H)
pKd: −log10 of the molar value.
ENDPOINT NAME: pKd

Measured pKd for this entry HPALVFDITK on HLA-B*40:01: ≤ 4.16

###

# pKd values compiled below
TGT: HLA-B*40:01
PROCEDURE TEXT: IEDB peptide-MHC binding, purified MHC/competitive/radioactivity; filed as Kd, often an IC50 or EC50 that approximates it; bounds were set here for any values at or beyond the usual limits of such assays
EXPERIMENTAL CONDITIONS: source organism: Mammarenavirus lassaense
In textbook form, pKd equals minus log to base ten of the concentration in mol/L.

// pKd lookup, sequence = REAYCQEFSL , result: 5.01

Recorded pKd (sequence REPAGLGSM ): 5.10

###

TGT: HLA-B*27:20
PROCEDURE TEXT: IEDB peptide-MHC binding, purified MHC/competitive/fluorescence; filed as Kd, often an IC50 or EC50 that approximates it; bounds were set here for any values at or beyond the usual limits of such assays
EXPERIMENTAL CONDITIONS: source organism: Mycobacterium tuberculosis variant bovis BCG str. Pasteur 1173P2
ENDPOINT NAME: Kd
Reply with the number and its unit after it.

The recorded Kd with HLA-B*27:20 for AEFGPWQTV was 0.185 µM

###

Examples of sequences with documented pKd follow.
TGT: HLA-A*02:17
PROCEDURE TEXT: IEDB peptide-MHC binding, purified MHC/competitive/radioactivity; filed as Kd, often an IC50 or EC50 that approximates it; bounds were set here for any values at or beyond the usual limits of such assays
EXPERIMENTAL CONDITIONS: source organism: Dengue virus 2 Thailand/NGS-C/1944
Field pKd (float): negative decimal logarithm of the concentration in molar.

LMMTTIGIVL : 5.92

Now take the following sequence into account.
Per the records, this sequence ( TLMAMDLGEL ) has pKd equal to 6.56

###

TGT: HLA-A*31:01
PROCEDURE TEXT: IEDB peptide-MHC binding, purified MHC/direct/fluorescence; filed as Kd, often an IC50 or EC50 that approximates it; bounds were set here for any values at or beyond the usual limits of such assays
EXPERIMENTAL CONDITIONS: source organism: Cowpox virus
ENDPOINT NAME: Kd

Entry VYSFDESSF , Kd reported as ≥ 20 µM

###

Items are presented alongside their recorded Kd.
TGT: HLA-A*68:02
PROCEDURE TEXT: IEDB peptide-MHC binding, purified MHC/competitive/fluorescence; filed as Kd, often an IC50 or EC50 that approximates it; bounds were set here for any values at or beyond the usual limits of such assays
EXPERIMENTAL CONDITIONS: source organism: Yersinia pestis Nepal516

YADGGQWYN : ≥ 20 µM

Note to self: Kd recorded for ILHRLAPWI was ≥ 20 µM

###

TGT: HLA-A*02:03
PROCEDURE TEXT: IEDB peptide-MHC binding, purified MHC/competitive/radioactivity; filed as Kd, often an IC50 or EC50 that approximates it; bounds were set here for any values at or beyond the usual limits of such assays
EXPERIMENTAL CONDITIONS: source organism: Dengue virus 4 Philippines/H241/1956
ENDPOINT NAME: Kd (nM)
All answers are understood in nM, so give the number only.

Kd for SMAMTCIAV is 4.07

###

TGT: HLA-A*03:01
PROCEDURE TEXT: IEDB peptide-MHC binding, purified MHC/direct/fluorescence; filed as Kd, often an IC50 or EC50 that approximates it; bounds were set here for any values at or beyond the usual limits of such assays
EXPERIMENTAL CONDITIONS: source organism: Influenza A virus (A/Switzerland/8808/2002(H1N1))
pKd: −log10 of the molar value.
ENDPOINT NAME: pKd

// assay HLA-A*03:01, entry VPAQNAIST , pKd value = ≤ 4.70

###

TGT: HLA-B*51:01
PROCEDURE TEXT: IEDB peptide-MHC binding, purified MHC/competitive/fluorescence; filed as Kd, often an IC50 or EC50 that approximates it; bounds were set here for any values at or beyond the usual limits of such assays
EXPERIMENTAL CONDITIONS: source organism: Zaire ebolavirus
pKd: −log10 of the molar value.
Entries and their pKd

Record excerpt, results attached:
FLILPQAKK : ≤ 4.70
KLINTLFHA : ≤ 4.70

Alright, here's another sequence for you.
Value (pKd, HLA-B*51:01) for record EAEKQLQQY = ≤ 4.70

###

TGT: HLA-A*29:02
PROCEDURE TEXT: IEDB peptide-MHC binding, purified MHC/competitive/fluorescence; filed as Kd, often an IC50 or EC50 that approximates it; bounds were set here for any values at or beyond the usual limits of such assays
EXPERIMENTAL CONDITIONS: source organism: Cryptosporidium parvum Iowa II
ENDPOINT NAME: Kd (nM)
Just the number in nM, nothing appended.

Memo: SMIDNSHLE , reported Kd: 68.3

###

TGT: HLA-B*15:01
PROCEDURE TEXT: IEDB peptide-MHC binding, purified MHC/competitive/fluorescence; filed as Kd, often an IC50 or EC50 that approximates it; bounds were set here for any values at or beyond the usual limits of such assays
EXPERIMENTAL CONDITIONS: source organism: Yersinia pestis Nepal516
ENDPOINT NAME: Kd

YADGGQWYN : ≥ 20 µM
ILHRLAPWI : ≥ 20 µM

Recorded Kd (sequence NSYTLLLAY ): 0.676 µM

###

TGT: HLA-B*51:01
PROCEDURE TEXT: IEDB peptide-MHC binding, purified MHC/competitive/fluorescence; bounds were set here for any values at or beyond the usual limits of such assays
EXPERIMENTAL CONDITIONS: source organism: Homo sapiens
ENDPOINT NAME: IC50
Enter the number, and then the unit.

IC50 on HLA-B*51:01 for FPHTELANL is 685 nM

###

TGT: HLA-B*39:01
PROCEDURE TEXT: IEDB peptide-MHC binding, purified MHC/direct/fluorescence; filed as Kd, often an IC50 or EC50 that approximates it; bounds were set here for any values at or beyond the usual limits of such assays
EXPERIMENTAL CONDITIONS: source organism: Burkholderia mallei ATCC 23344
ENDPOINT NAME: Kd

Short answer for LVTGAGSGF : Kd was ≥ 20 µM

###

TGT: HLA-B*58:01
PROCEDURE TEXT: IEDB peptide-MHC binding, purified MHC/direct/fluorescence; filed as Kd, often an IC50 or EC50 that approximates it; bounds were set here for any values at or beyond the usual limits of such assays
EXPERIMENTAL CONDITIONS: source organism: Vibrio parahaemolyticus
ENDPOINT NAME: pKd
# pKd is unitless: minus log10 of the molar concentration; print number only

Record for TVIPFYFVW under target or system HLA-B*58:01: pKd reported as 7.38

###

TGT: HLA-A*69:01
PROCEDURE TEXT: IEDB peptide-MHC binding, purified MHC/direct/fluorescence; filed as Kd, often an IC50 or EC50 that approximates it; bounds were set here for any values at or beyond the usual limits of such assays
EXPERIMENTAL CONDITIONS: source organism: Mycobacterium avium 104
ENDPOINT NAME: Kd

Reported Kd for IAHVRDVVM was ≥ 20 µM

###

TGT: HLA-A*69:01
PROCEDURE TEXT: IEDB peptide-MHC binding, purified MHC/competitive/fluorescence; filed as Kd, often an IC50 or EC50 that approximates it; bounds were set here for any values at or beyond the usual limits of such assays
EXPERIMENTAL CONDITIONS: source organism: Orthohantavirus andesense
pKd: −log10 of the molar value.
The entries below are paired with their reported pKd.

IQNALEKAL : ≤ 4.70

Continue with the sequence presented below.
Tested on HLA-A*69:01: VFTSRIQVI . Observed pKd: ≤ 4.70

###

TGT: HLA-A*24:03
PROCEDURE TEXT: IEDB peptide-MHC binding, purified MHC/competitive/fluorescence; filed as Kd, often an IC50 or EC50 that approximates it; bounds were set here for any values at or beyond the usual limits of such assays
EXPERIMENTAL CONDITIONS: source organism: Giardia lamblia ATCC 50803
pKd: −log10 of the molar value.
ENDPOINT NAME: pKd

Field pKd (entry TELPLAYER ) reads ≤ 4.70
